Each recorded value in this set is attributed to ChEMBL document CHEMBL3286385.

Field: IC50. Provide a value for each of the compounds that follow.
assaySystem: Prostaglandin G/H synthase 1 (Ovis aries)
Sequence (P05979 whole entry): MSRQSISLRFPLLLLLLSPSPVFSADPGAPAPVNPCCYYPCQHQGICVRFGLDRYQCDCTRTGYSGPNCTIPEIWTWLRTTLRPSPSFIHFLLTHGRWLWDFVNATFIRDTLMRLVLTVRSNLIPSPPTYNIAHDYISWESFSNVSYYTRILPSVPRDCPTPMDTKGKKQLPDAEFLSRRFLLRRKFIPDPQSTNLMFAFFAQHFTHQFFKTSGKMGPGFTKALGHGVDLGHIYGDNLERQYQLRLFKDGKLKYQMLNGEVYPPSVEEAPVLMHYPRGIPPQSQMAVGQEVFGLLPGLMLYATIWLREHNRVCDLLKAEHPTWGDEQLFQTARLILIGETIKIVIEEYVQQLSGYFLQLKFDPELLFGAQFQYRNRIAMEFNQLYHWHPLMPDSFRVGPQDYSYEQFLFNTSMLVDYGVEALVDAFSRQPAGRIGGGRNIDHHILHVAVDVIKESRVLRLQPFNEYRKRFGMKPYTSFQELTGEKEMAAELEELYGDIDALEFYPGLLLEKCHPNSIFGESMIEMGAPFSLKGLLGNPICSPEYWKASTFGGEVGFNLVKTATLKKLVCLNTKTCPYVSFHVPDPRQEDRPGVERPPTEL
Express the result in µM but write the number alone.

Read off the recorded IC50 for Cc1ccc(NC(=O)c2nc(-c3ccccc3)n(-c3ccc(S(N)(=O)=O)cc3)n2)cc1
516

Give the value of IC50 reported for the following: NS(=O)(=O)c1ccc(-n2nc(C(=O)Nc3nc4ccccc4s3)nc2-c2ccccc2)cc1
798
